- system-under-test: T1, recombinant human MUC1-SEA (Homo sapiens, UniProt P15941)
- T1 construct: on recombinant human MUC1-SEA on SPR; purchased Acrobiosystems MU1-H52H9
- T1 sequence (P15941 1039-1148 limits assumed): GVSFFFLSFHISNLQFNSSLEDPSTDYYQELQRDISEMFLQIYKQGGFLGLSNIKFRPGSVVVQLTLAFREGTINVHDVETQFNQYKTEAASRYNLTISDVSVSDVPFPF
- method-summary: Binding strength by Surface Plasmon Resonance (SPR)
- stated-conditions: Table 2, variants of humanized anti-MUC1 5F3 mAb
reported-metric: ka (M⁻¹ s⁻¹)
Your answer is read as M⁻¹ s⁻¹, so omit the unit and give the number.

# ka lookup, item HM4 LM3: variant of SP66; VH HM4 SEQ ID NO: 10, VL LM3 SEQ ID NO: 14 (antibody, V domains shown) VH: EIQLVQSGAEVKKPGSSVKVSCKVTGHSITRGSSWHWMRQAPGQGLEWIGYIHYGGGTSYNPSLKSRATLTRDTSTNTFYMELSSLRSEDTAFYFCARYSYDITYRWFFDVWGQGTLVTVSS VL: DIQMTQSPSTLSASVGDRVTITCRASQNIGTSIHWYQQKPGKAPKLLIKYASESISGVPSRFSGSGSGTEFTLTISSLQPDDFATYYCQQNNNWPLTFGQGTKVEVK
2.88e+06

Values from patent US20250041437A1
